Biological target: ProfilerPro Kinase Selectivity Assay Kit kinases (Homo sapiens, UniProt P35968)
Sequence (P35968 20-1356 limits assumed): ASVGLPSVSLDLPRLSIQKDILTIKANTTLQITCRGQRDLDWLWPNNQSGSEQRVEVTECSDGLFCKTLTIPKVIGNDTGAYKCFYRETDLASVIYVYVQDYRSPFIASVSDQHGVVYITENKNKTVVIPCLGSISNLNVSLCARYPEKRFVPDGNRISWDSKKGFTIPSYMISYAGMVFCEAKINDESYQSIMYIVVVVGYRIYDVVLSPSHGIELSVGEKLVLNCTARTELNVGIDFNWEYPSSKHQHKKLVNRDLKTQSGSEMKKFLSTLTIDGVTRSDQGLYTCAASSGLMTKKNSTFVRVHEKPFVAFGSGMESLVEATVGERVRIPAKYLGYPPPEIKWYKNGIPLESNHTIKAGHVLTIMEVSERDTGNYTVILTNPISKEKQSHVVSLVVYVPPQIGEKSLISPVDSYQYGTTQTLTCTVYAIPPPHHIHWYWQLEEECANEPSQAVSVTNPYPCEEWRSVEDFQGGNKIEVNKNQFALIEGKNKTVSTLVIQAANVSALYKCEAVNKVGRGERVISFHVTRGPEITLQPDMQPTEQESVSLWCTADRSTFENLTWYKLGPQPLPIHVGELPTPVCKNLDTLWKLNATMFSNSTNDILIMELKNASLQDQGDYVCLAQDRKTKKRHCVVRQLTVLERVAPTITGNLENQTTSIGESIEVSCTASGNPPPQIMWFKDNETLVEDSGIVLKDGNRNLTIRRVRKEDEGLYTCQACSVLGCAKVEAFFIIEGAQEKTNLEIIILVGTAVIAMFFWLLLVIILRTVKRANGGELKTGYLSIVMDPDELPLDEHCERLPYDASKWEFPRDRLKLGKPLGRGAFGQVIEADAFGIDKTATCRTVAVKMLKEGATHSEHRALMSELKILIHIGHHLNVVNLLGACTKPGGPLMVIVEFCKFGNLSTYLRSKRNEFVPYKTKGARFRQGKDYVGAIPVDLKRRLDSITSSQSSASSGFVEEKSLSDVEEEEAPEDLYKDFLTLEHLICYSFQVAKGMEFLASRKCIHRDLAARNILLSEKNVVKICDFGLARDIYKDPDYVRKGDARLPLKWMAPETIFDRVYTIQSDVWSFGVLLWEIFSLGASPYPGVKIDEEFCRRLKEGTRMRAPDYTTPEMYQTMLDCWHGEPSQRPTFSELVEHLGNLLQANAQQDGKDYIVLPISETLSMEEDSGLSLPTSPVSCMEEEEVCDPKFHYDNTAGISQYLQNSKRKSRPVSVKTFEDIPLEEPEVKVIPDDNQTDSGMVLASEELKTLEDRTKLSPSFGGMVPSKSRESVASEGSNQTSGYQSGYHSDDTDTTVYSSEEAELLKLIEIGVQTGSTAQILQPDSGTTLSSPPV
Type: biochemical
Details: KDR; 1 μM compound concentration

{"smiles-text": "Cc1nc(-c2cccnc2Nc2cccc3[nH]ncc23)c2nc[nH]c2n1", "measurement-unit": "POC", "POC (Percent of control) KDR": 90}
{"smiles-text": "Cc1cnc(Nc2cccc3[nH]ccc23)c(-c2nc(C)nc(N)n2)c1", "measurement-unit": "POC", "POC (Percent of control) KDR": 90}
{"smiles-text": "COc1ccc(Nc2ncc(Cc3ccc(S(C)(=O)=O)cc3)cc2-c2nc(C)nc3[nH]cnc23)cn1", "measurement-unit": "POC", "POC (Percent of control) KDR": 91}
{"smiles-text": "Cc1nc(N)nc(-c2cccnc2Nc2cccc3[nH]ccc23)n1", "measurement-unit": "POC", "POC (Percent of control) KDR": 106}
{"smiles-text": "Cc1nc(N)nc(-c2cccnc2Nc2cccc(O)c2)n1", "measurement-unit": "POC", "POC (Percent of control) KDR": 105}
{"smiles-text": "c1cnc(Nc2cccc3[nH]ncc23)c(-c2ncnc3[nH]cnc23)c1", "measurement-unit": "POC", "POC (Percent of control) KDR": 89}
{"smiles-text": "CCc1cnc(Nc2ccc(OC)nc2)c(-c2nc(C)nc3[nH]cnc23)c1", "measurement-unit": "POC", "POC (Percent of control) KDR": 97}
{"smiles-text": "Cc1cnc(Nc2cccc3[nH]ncc23)c(-c2nc(C)nc(N)n2)c1", "measurement-unit": "POC", "POC (Percent of control) KDR": 86}
{"smiles-text": "COc1ccc(Nc2ncccc2-c2nc(C)nc3[nH]cnc23)cn1", "measurement-unit": "POC", "POC (Percent of control) KDR": 93}
{"smiles-text": "COc1ccc(Nc2ncc(CN3CCN(C(C)=O)CC3)cc2-c2nc(C)nc3[nH]cnc23)cn1", "measurement-unit": "POC", "POC (Percent of control) KDR": 92}
{"smiles-text": "COc1ccc(Nc2ncccc2-c2ncnc3[nH]cnc23)cn1", "measurement-unit": "POC", "POC (Percent of control) KDR": 93}

---

# key: entry, value: POC (Percent of control) HGK
Target: ProfilerPro Kinase Selectivity Assay Kit kinases (Homo sapiens)
Format: biochemical
Conditions: HGK; 1 μM compound concentration
assay-readout: POC (Percent of control) HGK

{"smiles-text": "Cc1nc(N)nc(-c2cc(CN3CCN(S(C)(=O)=O)CC3)cnc2Nc2cccc(O)c2)n1", "assay-readout": "POC (Percent of control) HGK", "experimental-value": "96 POC"}
{"smiles-text": "CCc1cnc(Nc2ccc(OC)nc2)c(-c2nc(C)nc3[nH]cnc23)c1", "assay-readout": "POC (Percent of control) HGK", "experimental-value": "94 POC"}
{"smiles-text": "Cc1cnc(Nc2cccc3[nH]ncc23)c(-c2nc(C)nc(N)n2)c1", "assay-readout": "POC (Percent of control) HGK", "experimental-value": "91 POC"}
{"smiles-text": "COc1ccc(Nc2ncc(CN3CCN(C(C)=O)CC3)cc2-c2nc(C)nc3[nH]cnc23)cn1", "assay-readout": "POC (Percent of control) HGK", "experimental-value": "95 POC"}
{"smiles-text": "Cc1nc(N)nc(-c2cccnc2Nc2cccc3[nH]ccc23)n1", "assay-readout": "POC (Percent of control) HGK", "experimental-value": "97 POC"}
{"smiles-text": "Cc1cnc(Nc2cccc3[nH]ccc23)c(-c2nc(C)nc(N)n2)c1", "assay-readout": "POC (Percent of control) HGK", "experimental-value": "104 POC"}
{"smiles-text": "Cc1nc(N)nc(-c2cccnc2Nc2cccc(O)c2)n1", "assay-readout": "POC (Percent of control) HGK", "experimental-value": "99 POC"}
{"smiles-text": "COc1ccc(Nc2ncccc2-c2ncnc3[nH]cnc23)cn1", "assay-readout": "POC (Percent of control) HGK", "experimental-value": "94 POC"}

---

Target: PI3Kα (Homo sapiens (Human))
Sequence (P42336 whole entry): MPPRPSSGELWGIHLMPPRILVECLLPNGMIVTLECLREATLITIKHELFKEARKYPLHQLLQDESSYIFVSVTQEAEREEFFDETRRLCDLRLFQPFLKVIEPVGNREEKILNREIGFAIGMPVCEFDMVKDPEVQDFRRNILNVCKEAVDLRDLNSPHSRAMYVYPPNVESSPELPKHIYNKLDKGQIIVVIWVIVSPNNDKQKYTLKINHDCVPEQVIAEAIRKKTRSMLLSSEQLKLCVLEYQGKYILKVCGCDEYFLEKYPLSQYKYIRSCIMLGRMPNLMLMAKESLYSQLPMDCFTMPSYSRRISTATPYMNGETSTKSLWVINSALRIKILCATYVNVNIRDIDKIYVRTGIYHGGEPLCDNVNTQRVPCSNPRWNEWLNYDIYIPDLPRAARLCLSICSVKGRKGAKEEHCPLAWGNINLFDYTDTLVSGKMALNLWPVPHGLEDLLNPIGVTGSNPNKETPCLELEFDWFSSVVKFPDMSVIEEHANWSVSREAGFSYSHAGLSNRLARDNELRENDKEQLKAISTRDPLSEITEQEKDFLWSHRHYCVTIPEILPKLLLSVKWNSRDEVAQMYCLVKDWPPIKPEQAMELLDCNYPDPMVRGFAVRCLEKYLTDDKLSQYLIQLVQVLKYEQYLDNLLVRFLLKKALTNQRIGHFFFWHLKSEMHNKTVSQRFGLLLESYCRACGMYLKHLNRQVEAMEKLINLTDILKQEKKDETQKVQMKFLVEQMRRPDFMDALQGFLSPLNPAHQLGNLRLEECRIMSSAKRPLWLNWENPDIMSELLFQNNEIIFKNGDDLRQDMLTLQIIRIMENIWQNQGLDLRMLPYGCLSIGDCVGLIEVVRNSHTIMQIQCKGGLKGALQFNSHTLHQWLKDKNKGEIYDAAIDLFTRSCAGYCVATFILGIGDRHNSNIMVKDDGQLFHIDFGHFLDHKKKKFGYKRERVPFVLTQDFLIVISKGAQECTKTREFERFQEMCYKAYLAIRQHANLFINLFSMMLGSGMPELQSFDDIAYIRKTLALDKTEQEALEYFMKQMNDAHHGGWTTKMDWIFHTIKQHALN
Sequence (P27986 whole entry partner): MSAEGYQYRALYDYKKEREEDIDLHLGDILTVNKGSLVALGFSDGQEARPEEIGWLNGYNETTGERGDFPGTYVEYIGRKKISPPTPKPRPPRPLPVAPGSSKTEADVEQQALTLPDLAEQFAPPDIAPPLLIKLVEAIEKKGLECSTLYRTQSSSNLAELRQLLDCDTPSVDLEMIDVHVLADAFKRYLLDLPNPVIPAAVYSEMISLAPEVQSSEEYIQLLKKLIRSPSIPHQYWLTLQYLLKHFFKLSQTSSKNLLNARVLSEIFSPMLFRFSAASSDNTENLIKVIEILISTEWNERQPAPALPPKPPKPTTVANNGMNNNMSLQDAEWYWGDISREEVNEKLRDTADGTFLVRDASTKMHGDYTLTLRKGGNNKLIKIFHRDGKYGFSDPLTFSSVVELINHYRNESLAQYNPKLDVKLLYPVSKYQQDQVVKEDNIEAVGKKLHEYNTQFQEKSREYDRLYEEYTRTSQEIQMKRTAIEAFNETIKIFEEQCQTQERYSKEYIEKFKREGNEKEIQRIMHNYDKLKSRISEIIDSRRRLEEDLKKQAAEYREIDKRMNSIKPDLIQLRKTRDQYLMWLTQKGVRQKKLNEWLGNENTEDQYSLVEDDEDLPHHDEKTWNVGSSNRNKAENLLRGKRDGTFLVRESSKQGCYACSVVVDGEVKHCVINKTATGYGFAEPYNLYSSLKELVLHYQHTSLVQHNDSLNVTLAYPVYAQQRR
Settings: read-out: PI3Kα AlphaScreen ® Ki
pKi: −log10 of the molar value.

{"molecule": "Cc1nc(N)nc(-c2cc(CN3CCN(S(C)(=O)=O)CC3)cnc2Nc2ccc3ocnc3c2)n1", "pKi": 8.15}
{"molecule": "COc1ncc(Nc2ncc(C(C)O)cc2-c2nc(C)nc(N)n2)cc1F (centres unmarked)", "pKi": 7.23}
{"molecule": "Cc1nc(N)nc(-c2cccnc2Nc2ccc3c(c2)OC(F)(F)O3)n1", "pKi": 6.21}
{"molecule": "COc1ncc(Nc2ncc([C@@H](C)N3CCN(S(C)(=O)=O)C[C@@H]3C)cc2-c2nc(C)nc(N)n2)cn1", "pKi": 8.70}
{"molecule": "Cc1nc(N)nc(-c2cc(CN3CCN(S(C)(=O)=O)CC3)cnc2Nc2ccc3ncsc3c2)n1", "pKi": 7.37}
{"molecule": "CNc1nc(C)nc(-c2cc(CN3CCN(S(C)(=O)=O)CC3)cnc2Nc2ccc(OC)nc2)n1", "pKi": 8.15}
{"molecule": "COc1ccc(Nc2nc(N(C)C)ncc2-c2nc(C)nc(N)n2)cn1", "pKi": 7.35}
{"molecule": "COc1ccc(Nc2ncc(C(C)(C)N3CCN(S(C)(=O)=O)CC3)cc2-c2nc(C)nc(N)n2)cn1", "pKi": 7.96}
{"molecule": "COc1ccc(Nc2ncc(OC(F)F)cc2-c2nc(C)nc(N)n2)cn1", "pKi": 7.33}
{"molecule": "COc1ncc(Nc2ncc(C(C)(C)O)cc2-c2nc(C)nc(N)n2)cc1C", "pKi": 7.92}
{"molecule": "COc1ccc(Nc2nc(N3CCCCC3)ncc2-c2nc(C)nc(N)n2)cn1", "pKi": 6.99}
{"molecule": "COc1ccc(Nc2ncncc2-c2nc(C)nc(N)n2)cn1", "pKi": 7.74}
{"molecule": "Cc1nc(N)nc(-c2cc([C@@H](C)N3CCN(S(C)(=O)=O)C[C@@H]3C)cnc2Nc2ccc(Cl)nc2)n1", "pKi": 7.82}
{"molecule": "COc1ccc(Nc2ncc(C(C)=O)nc2-c2cc(N)nc(C)n2)cn1", "pKi": 6.99}
{"molecule": "Cc1nc(N)nc(-c2cc([C@@H](C)N3CCN(S(C)(=O)=O)C[C@@H]3C)cnc2Nc2ccc3scnc3c2)n1", "pKi": 8.40}
{"molecule": "COc1ccc(Nc2nccnc2-c2cc(N)nc(C)n2)cn1", "pKi": 7.23}
{"molecule": "COc1ccc(Nc2ncc(-c3cn[nH]c3)cc2-c2nc(C)nc(N)n2)cn1", "pKi": 7.96}
{"molecule": "COc1cc(Nc2ncc([C@@H](C)N3CCN(S(C)(=O)=O)CC3)cc2-c2nc(C)nc(N)n2)cnc1Cl", "pKi": 7.72}
{"molecule": "COc1ccc(Nc2ncc(Nc3ccccc3)cc2-c2nc(C)nc3[nH]cnc23)cn1", "pKi": 7.48}
{"molecule": "Cc1nc(N)nc(-c2cccnc2Nc2cnc(C)c(NS(C)(=O)=O)c2)n1", "pKi": 6.55}
{"molecule": "CCS(=O)(=O)c1cnc(Nc2cnc(OC)c(F)c2)c(-c2nc(C)nc(N)n2)c1", "pKi": 6.09}
{"molecule": "Cc1nc(N)nc(-c2cccnc2Nc2cc[nH]c(=O)c2)n1", "pKi": 6.19}
{"molecule": "Cc1nc(N)nc(-c2cc(CN3CCN(S(C)(=O)=O)CC3)cnc2Nc2cnc(O)c(F)c2)n1", "pKi": 7.44}
{"molecule": "Cc1nc(N)cc(-c2cccnc2Nc2cccc3[nH]ncc23)n1", "pKi": 6.89}
{"molecule": "COc1ccc(Nc2cnccc2-c2nc(C)nc(N)n2)cn1", "pKi": 6.06}
{"molecule": "Cc1nc(N)nc(-c2cc(C(C)N3CCN(C(=O)N(C)C)CC3)cnc2Nc2ccc3scnc3c2)n1 (centres unmarked)", "pKi": 7.22}

---

Target: ProfilerPro Kinase Selectivity Assay Kit kinases (Homo sapiens, UniProt P06241)
Sequence (P06241 2-537 limits assumed): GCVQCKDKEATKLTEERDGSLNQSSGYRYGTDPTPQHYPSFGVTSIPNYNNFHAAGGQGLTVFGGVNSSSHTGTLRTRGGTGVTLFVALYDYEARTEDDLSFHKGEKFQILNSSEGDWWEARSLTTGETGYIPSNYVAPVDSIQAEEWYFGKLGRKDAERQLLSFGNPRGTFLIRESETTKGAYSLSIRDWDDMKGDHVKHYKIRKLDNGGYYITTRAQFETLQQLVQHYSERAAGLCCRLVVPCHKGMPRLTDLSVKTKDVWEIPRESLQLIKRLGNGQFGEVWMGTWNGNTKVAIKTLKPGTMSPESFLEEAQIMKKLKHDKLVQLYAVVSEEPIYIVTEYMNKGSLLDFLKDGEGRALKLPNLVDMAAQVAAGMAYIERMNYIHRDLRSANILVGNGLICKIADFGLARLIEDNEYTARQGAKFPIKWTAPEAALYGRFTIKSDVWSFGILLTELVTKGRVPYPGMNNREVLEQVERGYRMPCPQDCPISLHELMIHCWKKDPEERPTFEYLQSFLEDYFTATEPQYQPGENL
Format: biochemical
Settings: FYN; 1 μM compound concentration
// reported POC (Percent of control) FYN for each item listed

{"smiles-text": "COc1ccc(Nc2ncccc2-c2ncnc3[nH]cnc23)cn1", "POC (Percent of control) FYN, POC": 101}
{"smiles-text": "Cc1cnc(Nc2cccc3[nH]ccc23)c(-c2nc(C)nc(N)n2)c1", "POC (Percent of control) FYN, POC": 101}
{"smiles-text": "COc1ccc(Nc2ncc(CN3CCN(C(C)=O)CC3)cc2-c2nc(C)nc3[nH]cnc23)cn1", "POC (Percent of control) FYN, POC": 99}

---

Target: UniProt P28482
Sequence (P28482 2-360 limits assumed): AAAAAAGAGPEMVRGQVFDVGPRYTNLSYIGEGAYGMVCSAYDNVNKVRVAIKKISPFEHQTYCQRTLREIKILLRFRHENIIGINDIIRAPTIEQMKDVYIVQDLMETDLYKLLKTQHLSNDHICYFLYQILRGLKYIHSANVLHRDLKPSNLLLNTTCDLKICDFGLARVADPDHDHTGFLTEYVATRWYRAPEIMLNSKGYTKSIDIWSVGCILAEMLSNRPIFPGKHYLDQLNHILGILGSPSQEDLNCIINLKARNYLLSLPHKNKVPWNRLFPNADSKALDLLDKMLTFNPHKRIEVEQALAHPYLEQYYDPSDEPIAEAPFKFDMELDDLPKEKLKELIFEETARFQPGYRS
Type: biochemical
Conditions: ERK2; 1 μM compound concentration
Here, each record is paired with measured POC (Percent of control) ERK2 data.
assay-readout: POC (Percent of control) ERK2 (POC)

{"smiles-text": "Cc1nc(N)nc(-c2cc(CN3CCN(S(C)(=O)=O)CC3)cnc2Nc2cccc(O)c2)n1", "test-system": "UniProt P28482", "assay-readout": "POC (Percent of control) ERK2", "experimental-value": 102}
{"smiles-text": "Cc1nc(N)cc(-c2cccnc2Nc2cccc3[nH]ncc23)n1", "test-system": "UniProt P28482", "assay-readout": "POC (Percent of control) ERK2", "experimental-value": 97}
{"smiles-text": "Cc1nc(N)nc(-c2cccnc2Nc2cccc(O)c2)n1", "test-system": "UniProt P28482", "assay-readout": "POC (Percent of control) ERK2", "experimental-value": 103}
{"smiles-text": "Cc1nc(-c2cccnc2Nc2cccc3[nH]ncc23)c2nc[nH]c2n1", "test-system": "UniProt P28482", "assay-readout": "POC (Percent of control) ERK2", "experimental-value": 97}
{"smiles-text": "Cc1nc(N)nc(-c2cccnc2Nc2cccc3[nH]ccc23)n1", "test-system": "UniProt P28482", "assay-readout": "POC (Percent of control) ERK2", "experimental-value": 103}
{"smiles-text": "COc1ccc(Nc2ncccc2-c2nc(C)nc3[nH]cnc23)cn1", "test-system": "UniProt P28482", "assay-readout": "POC (Percent of control) ERK2", "experimental-value": 103}
{"smiles-text": "COc1ccc(Nc2ncccc2-c2ncnc3[nH]cnc23)cn1", "test-system": "UniProt P28482", "assay-readout": "POC (Percent of control) ERK2", "experimental-value": 101}
{"smiles-text": "CCc1cnc(Nc2ccc(OC)nc2)c(-c2nc(C)nc3[nH]cnc23)c1", "test-system": "UniProt P28482", "assay-readout": "POC (Percent of control) ERK2", "experimental-value": 101}
